Collected pEC50 values appear next to each entry.
# test target: Neuronal acetylcholine receptor; alpha4/beta2 (Homo sapiens, UniProt P17787+P43681)
# Sequence (P17787 whole entry): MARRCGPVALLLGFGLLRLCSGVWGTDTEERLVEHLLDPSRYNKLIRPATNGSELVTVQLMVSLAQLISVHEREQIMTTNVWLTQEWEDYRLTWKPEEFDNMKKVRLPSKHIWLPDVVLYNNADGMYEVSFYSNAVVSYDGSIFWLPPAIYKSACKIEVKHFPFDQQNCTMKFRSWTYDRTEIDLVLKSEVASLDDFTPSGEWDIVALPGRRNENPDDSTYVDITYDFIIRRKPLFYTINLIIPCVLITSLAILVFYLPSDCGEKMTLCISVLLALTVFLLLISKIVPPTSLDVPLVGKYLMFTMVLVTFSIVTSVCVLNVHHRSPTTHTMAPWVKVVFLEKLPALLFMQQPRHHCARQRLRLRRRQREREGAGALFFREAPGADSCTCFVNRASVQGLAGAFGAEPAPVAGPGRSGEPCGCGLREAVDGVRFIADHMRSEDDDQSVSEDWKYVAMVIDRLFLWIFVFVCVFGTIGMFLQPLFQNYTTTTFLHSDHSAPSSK
# Sequence (P43681 whole entry): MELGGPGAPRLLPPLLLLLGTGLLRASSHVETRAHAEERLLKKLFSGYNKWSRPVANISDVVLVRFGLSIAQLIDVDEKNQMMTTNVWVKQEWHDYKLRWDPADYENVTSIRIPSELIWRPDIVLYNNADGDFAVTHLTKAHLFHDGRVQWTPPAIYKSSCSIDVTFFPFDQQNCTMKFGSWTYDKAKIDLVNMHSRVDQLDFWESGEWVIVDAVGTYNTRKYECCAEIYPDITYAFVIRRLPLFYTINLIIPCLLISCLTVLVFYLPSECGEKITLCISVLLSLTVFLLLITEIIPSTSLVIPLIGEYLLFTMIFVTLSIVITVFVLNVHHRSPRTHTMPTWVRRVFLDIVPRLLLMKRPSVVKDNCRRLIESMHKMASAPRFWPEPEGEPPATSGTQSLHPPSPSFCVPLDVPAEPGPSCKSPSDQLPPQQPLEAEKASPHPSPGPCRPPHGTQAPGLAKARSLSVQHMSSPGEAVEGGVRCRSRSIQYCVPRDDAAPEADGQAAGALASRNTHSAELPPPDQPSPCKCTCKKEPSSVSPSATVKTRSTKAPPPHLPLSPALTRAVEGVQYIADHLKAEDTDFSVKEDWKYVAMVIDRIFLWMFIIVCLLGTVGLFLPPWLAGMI
# procedure text: Agonist activity at high sensitivity and low sensitivity alpha4beta2-nAChR expressed in human SH-EP1 cells by 86Rb+ ion flux assay
// returns pEC50 (minus log10 of molar concentration), number only

Below: 2 molecules and their reported pEC50.
| smiles repr | numeric readout |
| --- | --- |
| CC[C@H]1C[C@@H]1c1cncc(OC[C@@H]2CCN2)c1 | 7.72 |
| FCC[C@H]1C[C@@H]1c1cncc(OC[C@@H]2CCN2)c1 | 7.95 |

Now take the following molecule into account.
Summary for this molecule, FC(F)C[C@H]1C[C@@H]1c1cncc(OC[C@@H]2CCN2)c1 : pEC50 is 8.06
